test: changes in parasitized red cell lysis, either direction – P. falciparum Indochina, OD700, 3 h, PSAC antagonist project, primary screen (AID 1156); conditions: P. falciparum-infected erythrocytes, osmotic lysis, higher = more signal, called active from +8 up or from −8 down

{"MOLECULE": "[N-]=[N+]=NCc1ccccc1C[C@]1(C(=O)N2CCOCC2)N=C(c2ccc(OCCCO)cc2)O[C@H]1c1ccccc1", "z-score": 0.785}
{"MOLECULE": "O=C1OCC=C[C@H]2OC34C=CCN(c5ccc(Cl)cc5)C(=O)[C@H]3N(CCCO)C(=O)[C@@H]4[C@@H]12 (stereo partly drawn)", "z-score": -0.172}
{"MOLECULE": "COCCCNC(=O)[C@@]1(Cc2ccccc2I)c2ccccc2C(=O)N(Cc2ccccc2)[C@H]1c1ccc(CO)cc1", "z-score": 1.85}
{"MOLECULE": "CC(=O)N1Cc2ccccc2C[C@@]2(N=C(c3ccc(OCCCO)cc3)O[C@H]2c2ccccc2)C1=O", "z-score": 2.76}
{"MOLECULE": "COCCOC(=O)N1C(=O)[C@@]2(c3cc(C#Cc4ccc(OC)cc4)ccc31)[C@H](C(N)=O)[C@H]1C(=O)O[C@H](c3ccccc3)[C@H](c3ccccc3)N1[C@@H]2c1ccc(O)cc1", "z-score": -0.939}
{"MOLECULE": "CC(C)C(=C=CC[C@H](O)c1ccccc1OCCO)CCO", "z-score": -0.163}
{"MOLECULE": "O=C1C2C=CC(C(O)c3ccc(-c4ccccc4)s3)N(Nc3ccccc3F)C2C(=O)N1c1ccccc1 (stereo not drawn)", "z-score": 0.8}
{"MOLECULE": "O=c1cccc(-c2cccc3ccccc23)o1", "z-score": -0.276}

----------
composite z-score values for the molecules below.
experiment: probe aCHRDL2 binding to arrayed compounds – biochemical, biotinylated probe, 635/667 nm fluorescence, primary screen (AID 1100); conditions: small-molecule microarray, higher = more signal
ENDPOINT: composite z-score

{"MOLECULE": "O=C1[C@H]2C=C(Br)[C@H](C[C@@H]2OCCOCCO)[C@@]12CO2", "REPORTED_VALUE": -0.115}
{"MOLECULE": "COC(=O)C(CC#Cc1ccc2c(c1)[C@]1(C(=O)N2)[C@H](C(=O)N2CCCCCCC2)[C@H]2C(=O)O[C@H](c3ccccc3)[C@H](c3ccccc3)N2[C@@H]1c1ccccc1OCCO)C(=O)OC", "REPORTED_VALUE": 1.75}
{"MOLECULE": "C=CCOC(=O)[C@H]1[C@@H]2C(=O)O[C@@H](c3ccccc3)[C@@H](c3ccccc3)N2[C@@H](c2ccc(OCCOC(=O)[C@H]3C[C@H]4C(=O)N[C@@H](CCCC[N+](C)(C)C)C(=O)N4[C@H]3c3ccc(O)cc3)cc2)[C@]12C(=O)Nc1ccccc12", "REPORTED_VALUE": -0.135}
{"MOLECULE": "Cc1cc(C)c(C(O)C2C=CC3C(=O)NC(=O)C3N2Nc2ccccn2)c(C)c1 (configuration not stated)", "REPORTED_VALUE": 0.862}
{"MOLECULE": "Cc1ccc(S[C@]2(C(=O)NCC(C)C)CC(=O)N(Cc3ccccc3)[C@@H]2c2ccc(CO)cc2)cc1", "REPORTED_VALUE": 1.09}
{"MOLECULE": "CCCNC(=O)[C@@]1(c2ccc([N+](=O)[O-])cc2)CC(=O)N(CC23CC4CC(CC(C4)C2)C3)[C@@H]1c1ccc(CO)cc1I", "REPORTED_VALUE": 0.195}
{"MOLECULE": "CCCC[C@H]1OB(O)C[C@H]2C1=C(COc1ccccc1)C[C@H]1C(=O)N(Cc3ccccc3)C(=O)[C@H]12", "REPORTED_VALUE": -0.283}

----------
molecular target: Dihydroorotate dehydrogenase (quinone), mitochondrial (Plasmodium falciparum (isolate 3D7)) (UniProt Q08210); test: inhibition of P. falciparum DHODH – biochemical, C-terminal His tag, absorbance 600 nm, primary screen (AID 1175); settings: PfDHODH enzyme, DCIP absorbance 600 nm; higher = more signal, called active from +8 up or from −8 down;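 note: recombinant parasite enzyme with a five histidine tag at its C terminus; test concentration not given here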
Sequence (Q08210 whole entry, looked up): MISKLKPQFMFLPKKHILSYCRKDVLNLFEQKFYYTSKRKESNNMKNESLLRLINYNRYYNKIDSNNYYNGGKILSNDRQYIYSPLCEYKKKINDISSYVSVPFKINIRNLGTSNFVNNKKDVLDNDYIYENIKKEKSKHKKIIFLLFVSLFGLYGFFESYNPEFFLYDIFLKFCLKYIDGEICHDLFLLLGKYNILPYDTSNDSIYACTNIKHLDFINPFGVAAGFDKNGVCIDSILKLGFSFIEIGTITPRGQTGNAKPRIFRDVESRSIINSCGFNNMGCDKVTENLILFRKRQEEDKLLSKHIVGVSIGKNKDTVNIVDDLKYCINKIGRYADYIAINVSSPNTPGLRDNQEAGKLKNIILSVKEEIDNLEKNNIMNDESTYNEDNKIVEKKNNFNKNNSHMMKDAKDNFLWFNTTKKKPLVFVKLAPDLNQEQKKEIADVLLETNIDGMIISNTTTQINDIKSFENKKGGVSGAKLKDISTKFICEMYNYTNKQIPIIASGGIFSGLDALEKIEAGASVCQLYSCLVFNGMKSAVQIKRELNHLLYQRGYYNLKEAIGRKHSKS
composite z-score values for the molecules below.

{"MOLECULE": "C=C(COC)/C(=C/C[C@H](OC(C)=O)c1ccccc1OCCO)c1cnc2ccccc2c1", "composite z-score": -2.14}
{"MOLECULE": "O=C(NCCN1CCOCC1)[C@@H]1c2ccccc2C(=O)N(Cc2cc(F)cc(C(F)(F)F)c2)[C@H]1c1ccc(CO)cc1", "composite z-score": -0.517}
{"MOLECULE": "C=C(C(=O)CC[C@@H](OC(C)=O)c1ccc(OCCO)cc1)C(C)C", "composite z-score": -1.51}
{"MOLECULE": "C=CCN1Cc2ccccc2C[C@@]2(COC(c3ccc(OCCCO)cc3)=N2)C1=O", "composite z-score": -0.993}
{"MOLECULE": "O=C1C2C=CC(C(O)c3ccc(-c4ccccc4)s3)N(Nc3ccccc3F)C2C(=O)N1c1ccccc1 (stereo not given)", "composite z-score": 0.853}

----------
test: binders of probe aHhip on microarray, primary screen, stem cell growth factor project, biochemical, small-molecule microarray, fluorescence 635/667 (AID 1087); conditions: higher = more signal;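 note: score merges spot fluorescence at 667nm with spot signal to noise ratio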

{"COMPOUND": "CN1C(=O)C2C(C1=O)C1C=C(c3ccc(CO)cc3)C2C(C2CC2)N1Cc1cc2c(cc1Br)OCO2 (stereo not drawn)", "composite z-score": -0.127}
{"COMPOUND": "C=C(C(=O)CC[C@@H](OC(=O)c1cccnc1)c1ccc(OCCO)cc1)C(C)C", "composite z-score": -0.0994}
{"COMPOUND": "COC(=O)[C@@]1(Cc2ccc(F)cc2)[C@H]2c3cc(C(=O)N(C)C)n(CCc4c[nH]c5ccc(OC)cc45)c3C[C@H]2CN1C(=O)c1ccccc1", "composite z-score": 0.836}
{"COMPOUND": "C/C=C/[C@H](CCn1cc([C@H](O)c2ccccc2)nn1)[Si](C)(C)c1ccc(OC)cc1", "composite z-score": -0.374}
{"COMPOUND": "C[C@]1(C(=O)NCC(F)(F)F)c2ccccc2C(=O)N(Cc2cc(F)cc(C(F)(F)F)c2)[C@H]1c1ccc(CO)cc1", "composite z-score": 2.14}
{"COMPOUND": "C=C[C@H](C)[C@H](O)c1ccc(OCCO)cc1", "composite z-score": -0.204}
{"COMPOUND": "Cc1ccc(F)cc1S(=O)(=O)N[C@@H]1CCN(Cc2ccc(C(F)(F)F)cc2)C1", "composite z-score": -0.283}
{"COMPOUND": "COc1ccc([Si](C)(C)[C@@H]2[C@@H](CCO)O[C@]3(C(=O)N(Cc4ccccc4)c4ccc(N(C=O)c5ccccc5)cc43)[C@H]2C)cc1", "composite z-score": -0.236}

----------
experiment: optical density change of DRC41 E. coli – strain DRC41, OD650, 24 h, E. coli filamentation project, primary screen (AID 1093);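 note: MC1000 strain lacking acrAB efflux and sulA so SOS filamentation is blocked; test concentration not given here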; settings: E. coli DRC41 growth, higher = more signal, called active from +8 up or from −8 down
ENDPOINT: z-score

{"MOLECULE": "CC(C)(C)OC(=O)CC[C@@]1(C(N)=O)N=C(c2ccc(OCCCO)cc2)O[C@@H]1c1ccccc1N=[N+]=[N-]", "REPORTED_VALUE": 0.77}
{"MOLECULE": "C=C(COC)C(=O)CC[C@H](OC(=O)c1cccnc1)c1ccccc1OCCO", "REPORTED_VALUE": 0.473}
{"MOLECULE": "COCCOC(=O)N1C(=O)[C@@]2(c3cc(C#Cc4ccc(OC)cc4)ccc31)[C@H](c1ccc(O)cc1)N1[C@H](c3ccccc3)[C@H](c3ccccc3)OC(=O)[C@H]1[C@@H]2C(=O)N1CCN(c2ncccn2)CC1", "REPORTED_VALUE": 1.15}
{"MOLECULE": "CC(C)N1C(=O)c2ccccc2[C@](C)(C(=O)NCCCN(C)C)[C@@H]1c1ccc(CO)cc1", "REPORTED_VALUE": 0.0321}
{"MOLECULE": "COc1ccc([Si](C)(C)[C@H]2[C@H](CC(=O)N3CCC[C@H]3CO)O[C@@]3(C(=O)N(Cc4cccc(N5CCC5=O)c4)c4ccccc43)[C@@H]2C)cc1", "REPORTED_VALUE": 1.24}
{"MOLECULE": "C=CCC(OC(C)=O)[C@@H]1[C@@H](N(Cc2ccc(-c3cccc(C(F)(F)F)c3)o2)C(=O)c2ccc(C)cc2)c2cc(OCCCO)ccc2N1C(=O)c1ccc2ccccc2n1 (stereo partly specified)", "REPORTED_VALUE": 1.44}

----------
composite z-score values for the compounds below.
test: probe aEGFR binding to arrayed compounds – biochemical, biotinylated probe, 635/667 nm fluorescence, primary screen (AID 1097); details: small-molecule microarray, higher = more signal;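 note: probe is a biotinylated anti-EGFR antibody binding compounds printed on slides; score combines fluorescence near 667 nm and signal to noise of each spot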

{"COMPOUND": "C=C(C)[C@@H]1CC=C(C(O)C2C=CC3C(=O)N(Cc4ccccc4)C(=O)C3N2n2cnnc2)CC1 (stereo partly drawn)", "composite z-score": -0.161}
{"COMPOUND": "O=C1OCCC/C=C\\[C@H]2OC34C=CCN(Cn5nnc6ccccc65)C(=O)[C@H]3N(CCCO)C(=O)[C@@H]4C12 (stereo partly drawn)", "composite z-score": -0.232}
{"COMPOUND": "COc1ccc(C#Cc2ccc3c(c2)[C@]2(C(=O)N3)[C@H](C(=O)N3CCN(c4ncccn4)CC3)[C@H]3C(=O)O[C@H](c4ccccc4)[C@H](c4ccccc4)N3[C@@H]2c2ccc(O)cc2)cc1", "composite z-score": -0.0573}
